Sourced from PubChem BioAssay

Assay: binders from COS7 lysate, DM2A8 probe, primary screen, torsin A project, cell lysate, small-molecule microarray, fluorescence 635/667 (AID 1065)
Settings: higher = more signal, COS7 lysate expressing mutant human TOR1A
OBSERVATION_TYPE: composite z-score
Enter the number alone.

Example entries and their recorded answers appear below.
{"columns": ["CHEM_SMILES", "composite z-score"],
 "data": [
  ["CCCNC(=O)[C@@]1(C)c2ccccc2C(=O)N(C(C)C)[C@H]1c1ccc(CO)cc1", -0.214],
  ["C=C(C(=O)CC[C@@H](OC(=O)c1cccnc1)c1ccc(CO)o1)C(C)C", 0.328]
]}

For record `COC(=O)[C@@]1(Cc2ccc(OC)cc2)[C@H]2c3cc(C(=O)N4CCCC4)n(C[C@H](O)CO)c3C[C@H]2CN1C(=O)c1ccccc1` the listed composite z-score is -0.0909

The value of composite z-score measured for the molecule `Cc1c(NC(=O)/C(C#N)=C/C=C/c2ccccc2)c(=O)n(-c2ccccc2)n1C` turned out to be -0.0022
